# PROCEDURE_TEXT: JC-1 mitochondrial signal, unstimulated adipocytes – cell-based, JC-1 fluorescence, 3T3-L1 adipocytes, 24 h, 100 nL compound, profiling panel (AID 1168); note: test concentration not given here
# CONDITION_PARAMETERS: JC-1 mitochondrial fluorescence, higher = more signal, called active from +8 up or from −8 down
Activity calls are given as the source filed them.
Parameter z-score: see the listing below.

{"columns": ["COMPOUND", "z-score"],
 "data": [
  ["Cc1ccccc1/C=C/C=O", "1.39 (inactive)"],
  ["O=C1C2C=CC(C(O)c3cccc4ccccc34)N(n3cnnc3)C2C(=O)N1Cc1ccccc1 (configuration not stated)", "-1.18 (inactive)"],
  ["C=C(C(=O)CC[C@@H](OC(C)=O)c1ccc(OCCO)cc1)C(C)C", "-0.191 (inactive)"],
  ["C=C(CCCC)C(=O)CC[C@H](OC(C)=O)c1ccc(CO)o1", "1.14 (inactive)"],
  ["CC(C)OC(=O)C1=CCC(c2cccc(Cl)c2)O1 (configuration not stated)", "-0.076 (inactive)"],
  ["C=C[C@H](OC)[C@@H](OC(=O)Nc1ccc(SC)cc1)c1ccc(OCCO)cc1", "0.734 (inactive)"],
  ["C[C@H]1C2[C@H](Cc3ccccc3)NC(=O)[C@]23C(=O)N[C@H](Cc2ccccc2)C(=O)N[C@H](Cc2ccccc2)C(=O)NC/C=C/CCC/C=C/C3[C@@H]2O[C@]12C (some centres not stated)", "-0.77 (inactive)"],
  ["C=CCC(OC(C)=O)[C@@H]1[C@@H](N(Cc2cc3ccccc3o2)C(=O)c2cccc3ccccc23)c2cc(OCCCO)ccc2N1C(=O)Cc1ccc2ccccc2c1 (some centres not stated)", "-0.858 (inactive)"],
  ["COc1ccc([Si](C)(C)[C@@H]2[C@@H](CC(=O)N3Cc4ccccc4C[C@H]3CO)O[C@]3(C(=O)N(Cc4cccc(N5C(=O)COc6ccccc65)c4)c4ccccc43)[C@H]2C)cc1", "1.52 (inactive)"],
  ["COc1cc(CO)cc(I)c1O[C@H]1C=C(C(=O)NCCO)C[C@@H](N(CCc2cccc(F)c2)C(=O)CCC2CCCC2)[C@@H]1O", "0.525 (inactive)"],
  ["COCCOC(=O)N1C(=O)[C@@]2(c3cc(C#Cc4ccc(OC)cc4)ccc31)[C@H](C(N)=O)[C@H]1C(=O)O[C@H](c3ccccc3)[C@H](c3ccccc3)N1[C@@H]2c1ccc(O)cc1", "0.454 (inactive)"],
  ["CCCC[C@H]1C[C@@H]1[C@@H]1N(P(=O)(c2ccccc2)c2ccccc2)[C@](CO)(c2ccccc2)CC12CC2", "-0.732 (inactive)"],
  ["CCCCCCC#C[Si](O[C@H](c1ccccc1)c1cn([C@H](C)c2ccccc2)nn1)(C(C)C)C(C)C", "-0.0744 (inactive)"],
  ["CN1C(=O)C2C=CC(C(O)c3ccccc3)N(NC(=O)OC(C)(C)C)C2C1=O (configuration not stated)", "-0.0572 (inactive)"],
  ["COCCn1c(C(=O)N2CCCC2)cc2c1C[C@H]1CN(C(=O)c3ccccc3)[C@@](Cc3ccc(OC)cc3)(C(=O)OC)[C@@H]21", "0.0944 (inactive)"],
  ["COc1ccc(C(=O)Nc2cccc(CN3C(=O)[C@@]4(O[C@@H](CCn5cc([C@H](O)c6ccccc6)nn5)[C@H]([Si](C)(C)c5ccc(OC)cc5)[C@H]4C)c4ccccc43)c2)cc1", "-0.694 (inactive)"],
  ["COc1ccc([Si](C)(C)[C@H]2[C@H](CC(=O)N(CCO)Cc3ccccc3)O[C@@]3(C(=O)N(Cc4cccc(N5C(=O)c6cccc7cccc5c67)c4)c4ccccc43)[C@@H]2C)cc1", "2.83 (inactive)"],
  ["CC(C)CNC(=O)[C@@]1(C)c2ccccc2C(=O)N(C(C)C)[C@H]1c1ccc(CO)cc1", "-0.638 (inactive)"],
  ["C=C[C@@H](C)[C@@H](OC(=O)Nc1ccc(OC)cc1)c1ccc(O)c2ccccc12", "-0.425 (inactive)"],
  ["O=C1C2C=CC(C(O)C3CC=CCC3)N(n3cnnc3)C2C(=O)N1Cc1ccccc1 (configuration not stated)", "-0.132 (inactive)"],
  ["O=C1OCCC=C[C@H]2OC34C=CCN(c5ccc6ccccc6c5)C(=O)[C@H]3N(CCCCCCO)C(=O)[C@@H]4C12 (some centres not stated)", "0.0246 (inactive)"],
  ["CN(C)CCCC[C@@H]1NC(=O)[C@@H]2C[C@H](C(=O)NCCCCCN)[C@H](c3ccc(O)cc3)N2C1=O", "0.665 (inactive)"]
]}

----------
# TARGET_SYSTEM: Follistatin-related protein 3 (Homo sapiens)
# PROCEDURE_TEXT: compounds binding follistatin-related protein 3 – biochemical, small-molecule microarray, 635 nm fluorescence, primary screen (AID 1105);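 note: score merges emission near 667 nm and signal to noise per printed spot across three slides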
# CONDITION_PARAMETERS: FSTL3 binding, higher = more signal
Parameter composite z-score: see the listing below.
TEST_READOUT: composite z-score

{"columns": ["MOLECULE", "TEST_READOUT", "OBSERVED_VALUE"],
 "data": [
  ["[N-]=[N+]=NCc1ccccc1[C@@H]1OC(c2ccc(OCCCO)cc2)=N[C@]1(Cc1ccccc1N=[N+]=[N-])C(N)=O", "composite z-score", 0.995],
  ["C=CCN1C(=O)[C@]2(COC(c3ccc(OCCCO)cc3)=N2)Cc2ccccc21", "composite z-score", 0.232],
  ["CCCCCCCCCCC(O)C1C=CC2C(=O)N(c3ccccc3)C(=O)C2N1Nc1ccc([N+](=O)[O-])cc1 (stereo unspecified)", "composite z-score", 1.01],
  ["COC(=O)[C@@]1(Cc2ccc(F)cc2)[C@H]2c3cc(C(=O)N(C)C)n(Cc4ccccn4)c3C[C@H]2CN1C(=O)c1ccccc1", "composite z-score", 0.706],
  ["NC(=O)NCC#Cc1ccc2c(c1)[C@]1(C(=O)N2)[C@H](C(=O)NC[C@H](O)c2ccccc2)[C@H]2C(=O)O[C@H](c3ccccc3)[C@H](c3ccccc3)N2[C@@H]1c1ccccc1OCCO", "composite z-score", -0.0845],
  ["CCN(CC)c1ccc(N2CC=CC34O[C@@H]5C=CCOC(=O)[C@@H]5[C@H]3C(=O)N(CCCCCO)[C@@H]4C2=O)cc1 (stereo partly specified)", "composite z-score", -1.22],
  ["C=C(C(=O)CC[C@@H](OC(=O)c1cccnc1)c1ccc(OCCO)cc1)C(C)C", "composite z-score", 0.802],
  ["Cc1ccccc1/C=C/C=O", "composite z-score", -0.303],
  ["COCCOC(=O)N1C(=O)[C@@]2(c3cc(C#Cc4ccc(OC)cc4)ccc31)[C@H](c1ccc(OCCO)cc1)N1[C@H](c3ccccc3)[C@H](c3ccccc3)OC(=O)[C@H]1[C@@H]2C(=O)N1CCc2cc(OC)c(OC)cc2C1", "composite z-score", 1.3],
  ["COCCn1c(C(=O)N(C)C)cc2c1C[C@H]1CN(C(=O)c3ccccc3)[C@@](Cc3ccc(F)cc3)(C(=O)OC)[C@@H]21", "composite z-score", 0.126],
  ["Cn1c2c(c3ccccc31)C(=O)C1NC2C=CC1(C)C(=O)OCc1ccccc1 (stereo unspecified)", "composite z-score", -1.58]
]}

----------
# Tested on: Plasmodium falciparum Sir2 (PF13_0152, Sir2A)
# PROCEDURE_TEXT: Plasmodium falciparum Sir2A binding compounds – biochemical, small-molecule microarray, 635 nm fluorescence, primary screen (AID 1098);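 note: score merges spot fluorescence intensity with its signal-to-noise ratio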
# CONDITION_PARAMETERS: fluorescence 635 nm, higher = more signal

{"columns": ["MOLECULE_SMILES", "composite z-score"],
 "data": [
  ["CC(C)C(=C=CC[C@H](O)c1ccccc1OCCO)CCO", 0.0112],
  ["C=C(COC)C(=O)CC[C@@H](OC(=O)c1ccccc1-c1ccccc1C(=O)O)c1ccc(CO)o1", 1.51],
  ["COCCCNC(=O)[C@@]1(Sc2ccc(C)cc2)CC(=O)N(Cc2ccccc2)[C@@H]1c1ccc(CO)cc1", 1.54],
  ["Cc1ccc(S[C@]2(C(=O)NCCN3CCOCC3)CC(=O)N(C3CCCCC3)[C@@H]2c2ccc(CO)cc2)cc1", 1.35],
  ["[N-]=[N+]=NCc1ccccc1C[C@]1(C(=O)N2CCOCC2)N=C(c2ccc(OCCCO)cc2)O[C@H]1c1ccccc1", 0.947],
  ["CCCNC(=O)[C@@]1(C)c2ccccc2C(=O)N(Cc2cc(C(F)(F)F)cc(C(F)(F)F)c2)[C@H]1c1ccc(CO)cc1", 0.0609]
]}

----------
Parameter z-score: see the listing below.
# PROCEDURE_TEXT: blood-stage malaria parasite viability loss – strain 3D7, DAPI fluorescence, 100 nL, primary screen (AID 1184);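 note: parasites grown inside human red blood cells in medium with human serum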
# CONDITION_PARAMETERS: P. falciparum 3D7 growth, 3 d, higher = more signal

{"columns": ["MOLECULE", "z-score"],
 "data": [
  ["CCOC1=C2C(c3ccc(C)cc3)N(S(=O)(=O)c3ccc(C)cc3)CC2n2c(=O)n(-c3ccccc3)c(=O)n2C1 (configuration not stated)", -0.102],
  ["COC(=O)[C@@]1(Cc2ccc(OC)cc2)[C@H]2c3cc(C(=O)N4CCCC4)n(CCc4ccccn4)c3C[C@H]2CN1C(=O)c1ccccc1", -1.77],
  ["CC(C)C(=C=CC[C@H](O)c1ccccc1OCCO)CCO", -0.305],
  ["C[C@H]1C2[C@H](Cc3ccccc3)NC(=O)[C@]23C(=O)N[C@H](Cc2ccccc2)C(=O)N[C@H](Cc2ccccc2)C(=O)NC/C=C/CCC/C=C/C3[C@@H]2O[C@]12C (some centres not stated)", -1.71],
  ["C[n+]1ccc2ccc(O)cc2c1", -0.901],
  ["O=C1O[C@@H](c2ccccc2)[C@@H](c2ccccc2)N2[C@@H](c3ccc(O)cc3)[C@]3(C(=O)Nc4ccccc43)[C@@H](C(=O)NC[C@H](O)c3ccccc3)[C@H]12", 1.15],
  ["CCCNC(=O)[C@@]1(C)c2ccccc2C(=O)N(Cc2cc(F)cc(C(F)(F)F)c2)[C@H]1c1ccc(CO)cc1", -0.8]
]}
